Measured values drawn from ChEMBL document CHEMBL1201862 for this set.

tested on: OVCAR-3; test: NCI tumour cell line growth inhibition, 48 h
The source made the active and inactive calls. Cut-off read from the data, not from the text of the source: active = GI50 up to about 1.1 µM and inactive = higher.
This section presents compounds with their documented GI50 values.

Observe how each entry below is paired with its result.
compound="Cc1cnc2c(c1)C(=O)C1=C(OC(C)(C)CC1O)C2=O (stereo not drawn)" measured_metric=GI50 value_observed="11.1 µM (inactive)"
compound="CCN(CC)CCCC(C)Nc1ccnc(/C=C/c2ccc(Cl)cc2)c1 (stereo not drawn)" measured_metric=GI50 value_observed="1.63 µM (inactive)"
compound="CC1(C)C2CCC1(C)C(N/C(=C(/C(Cl)=C(Cl)Cl)[N+](=O)[O-])n1nnc3ccccc31)C2 (stereo not drawn)" measured_metric=GI50 value_observed="12.4 µM (inactive)"
compound="CC(C#N)(NO)C(C)(C#N)NO (stereo not drawn)" measured_metric=GI50 value_observed="> 100 µM (inactive)"
compound=CCC1=[N+]([O-])C(C)(C)NC1(C)C measured_metric=GI50 value_observed="> 10 µM (inactive)"

Tell me its GI50 on OVCAR-3: `Cc1n[nH]c(=O)n1C1CCCC1`
> 100 µM (inactive)

Enter recorded GI50 with OVCAR-3 for CC1CN=C(Nc2ccc(F)cc2F)S1 (stereo not drawn) here.
> 100 µM (inactive)

* * *

tested on: LOX IMVI; assay: NCI tumour cell line growth inhibition, 48 h
Calls of active or inactive are those of the source. No stated cut-off is given here; in the data, active = GI50 up to about 1.1 µM and inactive = higher.
measured.metric: GI50

molecule="CCOC(=O)C1Cc2ccc(C)cc2C1=O (stereo not drawn)" measured_metric=GI50 value_observed="62.5 µM (inactive)"
molecule=COc1ccc(-c2c(C3=NCCN3)nnn2-c2ccccc2)cc1 measured_metric=GI50 value_observed="> 100 µM (inactive)"

Switching to the query record.
Return GI50 for the following molecule: `c1ccc(-c2nnc(-c3nn(-c4ccccc4)c4nc5ccccc5nc34)o2)cc1`
> 100 µM (inactive)

* * *

system: ACHN; experiment: NCI tumour cell line growth inhibition, 48 h
Activity calls are given as the source filed them. No stated cut-off is given here; in the data, active = GI50 up to about 1.1 µM and inactive = higher.
Let's look at some molecules and their measured GI50.

A selection of reference data follows.
molecule="COC1C(OC(=S)Nc2ccccc2)c2ccccc2N1C(C)=O (stereo not drawn)" value_observed="29 µM (inactive)"
molecule=COc1ccc(C(=O)CC(=O)C(=O)Nc2ccc(C)c(C)c2)cc1 value_observed="> 100 µM (inactive)"
molecule=N#CC1(C#N)C(c2ccc(C3C(C#N)(C#N)C3(C#N)C#N)cc2)C1(C#N)C#N value_observed="> 100 µM (inactive)"

Quick one: give measured GI50 for Cc1cc(-c2cccc3ccccc23)c(C#N)c(=S)n1C1OC(CO)C(O)C(O)C1O (stereo not drawn)
> 100 µM (inactive)

Retrieve GI50 measured for `CC1(C)S[C@H](c2ccccc2C(=O)O)N[C@@H]1CC(=O)O` and print it.
> 100 µM (inactive)

For the molecule C=C(C)C1CC/C(C)=C/CCC2(C)OC2CC/C(CO)=C\C1O (stereo not drawn) , report GI50.
> 100 µM (inactive)

For the molecule CC1(C)C2CCC1(C)C(N/C(=C(/C(Cl)=C(Cl)Cl)[N+](=O)[O-])n1nnc3ccccc31)C2 (stereo not drawn) , report GI50.
20.9 µM (inactive)

Dear colleague, please send me the reported GI50 for `CSC1=Nc2ccccc2N=C(c2ccccc2)C1` when you can.
> 100 µM (inactive)

* * *

test system: SF-295; test: NCI tumour cell line growth inhibition, 48 h
Active and inactive are the calls of the source. Cut-off read from the data, not from the text of the source: active = GI50 up to about 1.1 µM and inactive = higher.
measured.metric: GI50

# count of solved cases: 6
compound=N#CC1(C#N)C(c2ccc(C3C(C#N)(C#N)C3(C#N)C#N)cc2)C1(C#N)C#N value_observed="> 100 µM (inactive)"
compound=Cc1ccc(-c2cc(=S)n(-c3ccccc3)c3[nH]c(=S)n(-c4ccccc4)c(=N)c23)cc1 value_observed="> 100 µM (inactive)"
compound="O=c1c2ncn(C3CCCCO3)c2n(-c2ccccc2)c(=S)n1-c1ccccc1 (stereo unspecified)" value_observed="16.1 µM (inactive)"
compound=O=C(c1no[n+]([O-])c1C(=O)c1csc2ccccc12)c1csc2ccccc12 value_observed="14.6 µM (inactive)"
compound=Cc1nc(=O)[nH]c2s/c(=N/C3CCCCC3)n(C3CCCCC3)c(=O)c12 value_observed="> 100 µM (inactive)"
compound="COC(=O)C1Cc2c([nH]c3ccccc23)C(c2ccccc2O)N1 (stereo unspecified)" value_observed="78.5 µM (inactive)"

Recall and state the measured GI50 for COC(=O)C(O)P(=O)(OC)OC (stereo unspecified) .
> 100 µM (inactive)

Consider the compound C=CC1(C)CC(=O)C2(O)C(C)(O1)C(OC(C)=O)C(O)C1C(C)(C)CCC(O)C12C (stereo unspecified) . State its measured GI50.
> 142 µM (inactive)

Give the measured GI50 for COC1C(OC(=S)Nc2ccccc2)c2ccccc2N1C(C)=O (stereo unspecified)
28.4 µM (inactive)

Identify measured GI50 associated with `Cc1cc(=O)[nH]c(-n2[nH]c3c(c2=O)CCCC3)n1`
46 µM (inactive)

For the compound CCC(=O)C(C(C)/C=C/CCSc1ccccc1)C(O)CCCCCC(=O)OC (stereo unspecified) , report GI50.
> 100 µM (inactive)

Look up GI50 of `COc1ccc(C(=O)CC(=O)C(=O)Nc2ccc(C)c(C)c2)cc1` and report it.
> 100 µM (inactive)

Return the recorded GI50 value; entry: `NC(=S)NS(=O)(=O)c1ccc(F)cc1F`
> 100 µM (inactive)

Read off the recorded GI50 for N#CC1C(C#N)C2(c3ccccc3)C(c3ccccc3)=NN(c3ccccc3)CC12 (stereo unspecified)
> 100 µM (inactive)
